Molecular target: human ENPP1 (Homo sapiens)
Sequence (P22413 98-925 limits assumed): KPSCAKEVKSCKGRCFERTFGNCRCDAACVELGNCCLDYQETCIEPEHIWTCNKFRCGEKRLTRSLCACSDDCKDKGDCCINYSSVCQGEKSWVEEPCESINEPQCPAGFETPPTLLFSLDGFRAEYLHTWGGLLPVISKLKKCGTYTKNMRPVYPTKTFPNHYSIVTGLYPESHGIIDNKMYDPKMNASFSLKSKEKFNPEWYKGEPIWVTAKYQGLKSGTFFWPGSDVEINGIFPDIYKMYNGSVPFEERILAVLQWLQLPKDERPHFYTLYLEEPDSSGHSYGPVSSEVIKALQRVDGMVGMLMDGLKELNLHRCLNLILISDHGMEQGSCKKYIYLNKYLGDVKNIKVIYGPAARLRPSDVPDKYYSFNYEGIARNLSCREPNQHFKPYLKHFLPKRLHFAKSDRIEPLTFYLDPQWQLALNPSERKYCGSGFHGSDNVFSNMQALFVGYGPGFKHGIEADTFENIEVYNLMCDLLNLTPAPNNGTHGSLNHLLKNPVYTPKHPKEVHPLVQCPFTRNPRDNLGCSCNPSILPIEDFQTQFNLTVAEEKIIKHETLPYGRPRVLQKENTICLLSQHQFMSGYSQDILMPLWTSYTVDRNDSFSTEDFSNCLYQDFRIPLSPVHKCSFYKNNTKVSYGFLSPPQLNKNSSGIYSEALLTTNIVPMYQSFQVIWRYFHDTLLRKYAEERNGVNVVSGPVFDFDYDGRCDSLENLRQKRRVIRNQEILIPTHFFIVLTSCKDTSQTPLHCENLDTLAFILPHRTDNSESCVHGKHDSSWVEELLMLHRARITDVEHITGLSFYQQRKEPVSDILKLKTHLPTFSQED
Test: biochemical
pKi: −log10 of the molar value.
measured_quantity: pKi

Problem: So what's the measured pKi for this one? O=c1c(O)c(-c2ccc(O)c(O)c2)oc2cc(O)cc(O)c12 [Quercetin, 3,5,7,3′,4′-pentahydroxyflavone]
Result: ~8.40
